biological target: adenosine A2B receptor (Homo sapiens (Human)); experiment: Adenosine receptor activity assay (Table 1), A2B activity; type: biochemical; settings: read-out: Ave A2B cAMP IC50
Sequence (P29275 whole entry): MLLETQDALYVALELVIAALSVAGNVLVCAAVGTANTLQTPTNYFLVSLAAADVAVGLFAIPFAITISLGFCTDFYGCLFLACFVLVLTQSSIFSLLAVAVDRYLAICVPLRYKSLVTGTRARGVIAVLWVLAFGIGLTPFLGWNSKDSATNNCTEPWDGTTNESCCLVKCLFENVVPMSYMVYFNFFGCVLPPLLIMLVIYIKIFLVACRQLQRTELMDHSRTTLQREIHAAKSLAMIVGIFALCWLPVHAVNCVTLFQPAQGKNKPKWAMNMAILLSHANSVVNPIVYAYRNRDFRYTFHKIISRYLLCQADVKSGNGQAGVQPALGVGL
Record form. Attribute: IC50. Fill in for each entry.

Query :: Quick one: IC50 for C[C@H](Nc1nc(C(=O)N[C@H]2CC[C@@H](O)C2)c2sccc2n1)c1cncc(F)c1 ?
Result :: < 10 nM

Query :: Next: COCC(Nc1nc(C(=O)N2CC[C@H](O)C2)c2sccc2n1)c1cccnc1 (stereo partly shown)
Result :: 100 to 500 nM

Query :: Next: C[C@H](Nc1nc(C(=O)N2CCCOC2)c2sccc2n1)c1ccccn1
Result :: 100 to 500 nM

Query :: Next: CC(C)C(=O)NC1CN(C(=O)c2nc(N[C@@H](C)c3cncc(F)c3)nc3ccsc23)C1
Result :: < 10 nM

Query :: Next: O=C(NCc1ccccc1)c1nc(NCc2ccccc2)nc2ccsc12
Result :: 100 to 500 nM

Query :: Next: C[C@H](NC(=O)c1nc(N[C@@H](C)c2ccccc2)nc2ccsc12)c1ccccc1
Result :: 100 to 500 nM

Query :: Next: O=C(NCc1ccc(C(F)(F)F)nc1)c1nc(NCc2ccc(C(F)(F)F)nc2)nc2ccsc12
Result :: > 500 nM

Query :: Next: Cc1cc2nc(N[C@@H](C)c3cncc(F)c3)nc(C(=O)N3CC(N)C3)c2s1
Result :: < 10 nM

Query :: Next: COCCNC(=O)c1nc(NCc2cncc(F)c2)nc2ccsc12
Result :: 10 to 50 nM

Query :: Next: COc1cccc(CCNC(=O)c2nc(N[C@@H](C)c3ccccn3)nc3ccsc23)c1
Result :: 100 to 500 nM

Query :: Next: CCNC1CN(C(=O)c2nc(N[C@@H](C)c3cncc(F)c3)nc3cc(C)sc23)C1
Result :: 10 to 50 nM

Query :: Next: C[C@H](Nc1nc(C(=O)N2CC[C@H](F)C2)c2sccc2n1)c1ccccn1
Result :: < 10 nM

Query :: Next: CC(=O)N[C@H]1CCN(C(=O)c2nc(N[C@@H](C)c3cccnc3)nc3ccsc23)C1
Result :: 100 to 500 nM

Query :: Next: O=C(c1nc(NCc2ccc(C(F)(F)F)nc2)nc2ccsc12)N1CCCC1
Result :: > 500 nM

Query :: Next: Cc1cc2nc(N[C@@H](C)c3cncc(F)c3)nc(C(=O)NC[C@@H](C)O)c2s1
Result :: < 10 nM

Query :: Next: COc1ccc(CNC(=O)c2nc(NCc3cncc(C)c3)nc3ccsc23)cn1
Result :: 100 to 500 nM
